- measured target: MBP-FoxP3dN (Mus musculus, UniProt Q99JB6 188-423)
- Sequence: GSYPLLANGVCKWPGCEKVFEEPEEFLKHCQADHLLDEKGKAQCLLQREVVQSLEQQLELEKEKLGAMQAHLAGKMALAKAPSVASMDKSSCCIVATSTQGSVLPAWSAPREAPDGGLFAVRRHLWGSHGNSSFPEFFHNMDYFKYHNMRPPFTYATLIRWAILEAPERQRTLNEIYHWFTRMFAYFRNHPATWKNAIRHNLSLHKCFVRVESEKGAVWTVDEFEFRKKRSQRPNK
- method: PD-seq (MBP pull-down with sequencing); 20 mM Tris-HCl pH 7.5, 100 mM NaCl, 1.5 mM MgCl2, 0.4 uM protein, 0.1 uM dsDNA library, 30 min, room temperature, amylose pull-down; high values mean tight binding
- assay conditions: protein: recombinant; tags: His6-MBP; chain copies: 2; dsDNA, one strand shown
In all, about 16,000 sequences were measured (“rpm ratio (pull-down/input)”: median about 0.5, highest 2% from about 5.5 on). The list comes from a sample in which the highest values are over-represented; it also holds close analogues and randomly drawn sequences.

- chain sequence: "GATGATTGTTCTCCCAGCTGATGAATTATGAAATTCGAGTAAACAAATTTTCCTAATCTTTCTGTTCAAGCGCCATCTAC"
  measured target: "MBP-FoxP3dN (Mus musculus, UniProt Q99JB6 188-423)"
  binding signal: "0.632 RPM ratio (pull-down/input)"
- chain sequence: "GATGATTGTTCTCCCAGCTGATGAATTTGTTATTTCGAGTAAACAAATTTTCCTAATCTTTCTGTTCAAGCGCCATCTAC"
  measured target: "MBP-FoxP3dN (Mus musculus, UniProt Q99JB6 188-423)"
  binding signal: "7.62 RPM ratio (pull-down/input)"
- chain sequence: "GATGATTGTTCTCCCAGCTGATGAATTTTATACATCGAGTAAACAAATTTTCCTAATCTTTCTGTTCAAGCGCCATCTAC"
  measured target: "MBP-FoxP3dN (Mus musculus, UniProt Q99JB6 188-423)"
  binding signal: "0.598 RPM ratio (pull-down/input)"
- chain sequence: "GATGATTGTTCTCCCAGCTGATGAATTCTATACATCGAGTAAACAAATTTTCCTAATCTTTCTGTTCAAGCGCCATCTAC"
  measured target: "MBP-FoxP3dN (Mus musculus, UniProt Q99JB6 188-423)"
  binding signal: "0.559 RPM ratio (pull-down/input)"
- chain sequence: "GATGATTGTTCTCCCAGCTGATGAATTTCGTTATTCGAGTAAACAAATTTTCCTAATCTTTCTGTTCAAGCGCCATCTAC"
  measured target: "MBP-FoxP3dN (Mus musculus, UniProt Q99JB6 188-423)"
  binding signal: "2.7 RPM ratio (pull-down/input)"
- chain sequence: "GATGATTGTTCTCCCAGCTGATGAATTATGCGCCTCGAGTAAACAAATTTTCCTAATCTTTCTGTTCAAGCGCCATCTAC"
  measured target: "MBP-FoxP3dN (Mus musculus, UniProt Q99JB6 188-423)"
  binding signal: "2.82 RPM ratio (pull-down/input)"
- chain sequence: "GATGATTGTTCTCCCAGCTGATGAATTCTGTTATTCGAGTAAACAAATTTTCCTAATCTTTCTGTTCAAGCGCCATCTAC"
  measured target: "MBP-FoxP3dN (Mus musculus, UniProt Q99JB6 188-423)"
  binding signal: "6.72 RPM ratio (pull-down/input)"
- chain sequence: "GATGATTGTTCTCCCAGCTGATGAATTAGGTGGCTCGAGTAAACAAATTTTCCTAATCTTTCTGTTCAAGCGCCATCTAC"
  measured target: "MBP-FoxP3dN (Mus musculus, UniProt Q99JB6 188-423)"
  binding signal: "0.625 RPM ratio (pull-down/input)"
- chain sequence: "GATGATTGTTCTCCCAGCTGATGAATTCTGTATATCGAGTAAACAAATTTTCCTAATCTTTCTGTTCAAGCGCCATCTAC"
  measured target: "MBP-FoxP3dN (Mus musculus, UniProt Q99JB6 188-423)"
  binding signal: "5.72 RPM ratio (pull-down/input)"
- chain sequence: "GATGATTGTTCTCCCAGCTGATGAATTCTATATATCGAGTAAACAAATTTTCCTAATCTTTCTGTTCAAGCGCCATCTAC"
  measured target: "MBP-FoxP3dN (Mus musculus, UniProt Q99JB6 188-423)"
  binding signal: "1.18 RPM ratio (pull-down/input)"
- chain sequence: "GATGATTGTTCTCCCAGCTGATGAATTATGCTTGTCGAGTAAACAAATTTTCCTAATCTTTCTGTTCAAGCGCCATCTAC"
  measured target: "MBP-FoxP3dN (Mus musculus, UniProt Q99JB6 188-423)"
  binding signal: "4.71 RPM ratio (pull-down/input)"
- chain sequence: "GATGATTGTTCTCCCAGCTGATGAATTATTATGTTCGAGTAAACAAATTTTCCTAATCTTTCTGTTCAAGCGCCATCTAC"
  measured target: "MBP-FoxP3dN (Mus musculus, UniProt Q99JB6 188-423)"
  binding signal: "1.3 RPM ratio (pull-down/input)"
- chain sequence: "GATGATTGTTCTCCCAGCTGATGAATTACTGAGCTCGAGTAAACAAATTTTCCTAATCTTTCTGTTCAAGCGCCATCTAC"
  measured target: "MBP-FoxP3dN (Mus musculus, UniProt Q99JB6 188-423)"
  binding signal: "0.258 RPM ratio (pull-down/input)"
- chain sequence: "GATGATTGTTCTCCCAGCTGATGAATTGGGAATTTCGAGTAAACAAATTTTCCTAATCTTTCTGTTCAAGCGCCATCTAC"
  measured target: "MBP-FoxP3dN (Mus musculus, UniProt Q99JB6 188-423)"
  binding signal: "1.3 RPM ratio (pull-down/input)"
- chain sequence: "GATGATTGTTCTCCCAGCTGATGAATTATGTTATTCGAGTAAACAAATTTTCCTAATCTTTCTGTTCAAGCGCCATCTAC"
  measured target: "MBP-FoxP3dN (Mus musculus, UniProt Q99JB6 188-423)"
  binding signal: "7.23 RPM ratio (pull-down/input)"
